FYI, the data here is from paper PMC5540273.

# %Inh values compiled below
# Tested on: ULK1;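 further: KINOMEscan kinase panel screen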
# Experimental Parameters: concentration: 1 μM, replicates: in singlicate; n = 1
Reply with just the number (in %).

>>> numeric_value("COc1ccc(Nc2nccc(N3CCC(NS(=O)(=O)c4ccc(NC(C)=O)cc4)C3)n2)cc1 (stereo not drawn) [GSK1379729]")
26
>>> numeric_value("Fc1cccc(CSc2nnc(-c3ccc4c(c3)CCO4)o2)c1")
0
>>> numeric_value("C[C@@H]1CC[C@H](C(=O)NC2CCCCC2)CN1c1cc(-c2ccc3c(N)n[nH]c3c2)nc(N)n1 [GSK2291363]")
6
>>> numeric_value("O=C(NCCNc1ccnc(Nc2ccc(F)cc2)n1)Nc1ccc2c(c1)OCO2 [GSK1379882]")
0
>>> numeric_value("COc1cccc(C2=C(N(C)c3ccccc3)C(=O)NC2=O)c1 [SB-334865]")
19
>>> numeric_value("Cc1nc(N(C)[C@H]2CN(C(=O)CC#N)CC[C@H]2C)c2cc[nH]c2n1")
0

Problem: Need %Inh of CCC(=O)c1c(-c2ccccc2)c2cc(Cl)ccc2c(=O)n1Cc1ccc(C(=O)O)cc1 , thanks.
Solution: 0

Problem: Need %Inh of COc1cc2ncn(-c3cc(OCCCc4ccccc4)c(C(N)=O)s3)c2cc1OC [GSK205189] , thanks.
Solution: 2

Problem: Need %Inh of O=C(NCc1cccs1)c1cc(C(=O)c2c(Cl)cccc2Cl)c[nH]1 [GW823670] , thanks.
Solution: 0
